The values you see were collected from patent US20070286861A1.

Entries annotated with measured IC50
Target: T1, human Oncostatin M (hOSM) (human)
T1 chain: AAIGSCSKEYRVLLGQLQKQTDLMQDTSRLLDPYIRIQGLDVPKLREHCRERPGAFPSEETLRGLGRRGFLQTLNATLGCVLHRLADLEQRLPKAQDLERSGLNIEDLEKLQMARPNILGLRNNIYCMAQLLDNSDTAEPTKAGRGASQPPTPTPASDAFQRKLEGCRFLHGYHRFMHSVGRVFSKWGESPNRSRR
Assay: gp130 inhibition ELISA (antibody pre-incubated with OSM; OSM bound to plate-coated gp130-Fc detected)
Reply with just the number (in µg/mL).

Reported IC50, binder 10D3 chimaeric antibody (antibody, V domains shown) VH: EVQLQQSGPELVKPGASVKISCKASGYIFTDYNMDWVKQSHGKKLEWIGDINPNNGGTIDNQKFKDKATLTVDKSSSTAYMELRSLTSEDTAVYYCARGIYYYGSHYFDYWGQGTTLTVSS VL: QIVLTQSPAIMSASPGEKVTMTCSATSSVSVMHWFQKKSGTSPKRWIYDTSKLASGVPTRFSGSGSGTSYSLTISSMEAEDTATYYCQQWSSNPLTFGSGTKLELK : ____
0.057

# input binder: 15E10 chimaeric antibody (antibody, V domains shown) VH: QVQLKQSGPGLVQPSQSLSITCTVSGFSLTNYGVHWVRQSPGKGLEWLGVIWRGGSTDYNAAFMSRLSITKDNSRSQVFFKMNSLQADDTAIYYCAKSPNSNFYWYFDVWGTGTTVTVSS VL: QIVLTQSPTIMSASPGEKVTMTCSGSSSVSYMYWYQEKPGSSPRLLIEDTSNLASGVPARFSGSGSGTSYSLTISRMEAEDAATYYCQQWSSYPPTFGSGTKLEIK ; wanted: its IC50
0.036

# query: IC50 of entry 15E10 murine antibody (antibody, V domains shown) VH: QVQLKQSGPGLVQPSQSLSITCTVSGFSLTNYGVHWVRQSPGKGLEWLGVIWRGGSTDYNAAFMSRLSITKDNSRSQVFFKMNSLQADDTAIYYCAKSPNSNFYWYFDVWGTGTTVTVSS VL: QIVLTQSPTIMSASPGEKVTMTCSGSSSVSYMYWYQEKPGSSPRLLIEDTSNLASGVPARFSGSGSGTSYSLTISRMEAEDAATYYCQQWSSYPPTFGSGTKLEIK
0.059

Reported IC50, binder 10D3 murine antibody (antibody, V domains shown) VH: EVQLQQSGPELVKPGASVKISCKASGYIFTDYNMDWVKQSHGKKLEWIGDINPNNGGTIDNQKFKDKATLTVDKSSSTAYMELRSLTSEDTAVYYCARGIYYYGSHYFDYWGQGTTLTVSS VL: QIVLTQSPAIMSASPGEKVTMTCSATSSVSVMHWFQKKSGTSPKRWIYDTSKLASGVPTRFSGSGSGTSYSLTISSMEAEDTATYYCQQWSSNPLTFGSGTKLELK : ____
0.107
